Target: PI3Kα (Homo sapiens, UniProt P42336)
Sequence (P42336 whole entry, one chain of several): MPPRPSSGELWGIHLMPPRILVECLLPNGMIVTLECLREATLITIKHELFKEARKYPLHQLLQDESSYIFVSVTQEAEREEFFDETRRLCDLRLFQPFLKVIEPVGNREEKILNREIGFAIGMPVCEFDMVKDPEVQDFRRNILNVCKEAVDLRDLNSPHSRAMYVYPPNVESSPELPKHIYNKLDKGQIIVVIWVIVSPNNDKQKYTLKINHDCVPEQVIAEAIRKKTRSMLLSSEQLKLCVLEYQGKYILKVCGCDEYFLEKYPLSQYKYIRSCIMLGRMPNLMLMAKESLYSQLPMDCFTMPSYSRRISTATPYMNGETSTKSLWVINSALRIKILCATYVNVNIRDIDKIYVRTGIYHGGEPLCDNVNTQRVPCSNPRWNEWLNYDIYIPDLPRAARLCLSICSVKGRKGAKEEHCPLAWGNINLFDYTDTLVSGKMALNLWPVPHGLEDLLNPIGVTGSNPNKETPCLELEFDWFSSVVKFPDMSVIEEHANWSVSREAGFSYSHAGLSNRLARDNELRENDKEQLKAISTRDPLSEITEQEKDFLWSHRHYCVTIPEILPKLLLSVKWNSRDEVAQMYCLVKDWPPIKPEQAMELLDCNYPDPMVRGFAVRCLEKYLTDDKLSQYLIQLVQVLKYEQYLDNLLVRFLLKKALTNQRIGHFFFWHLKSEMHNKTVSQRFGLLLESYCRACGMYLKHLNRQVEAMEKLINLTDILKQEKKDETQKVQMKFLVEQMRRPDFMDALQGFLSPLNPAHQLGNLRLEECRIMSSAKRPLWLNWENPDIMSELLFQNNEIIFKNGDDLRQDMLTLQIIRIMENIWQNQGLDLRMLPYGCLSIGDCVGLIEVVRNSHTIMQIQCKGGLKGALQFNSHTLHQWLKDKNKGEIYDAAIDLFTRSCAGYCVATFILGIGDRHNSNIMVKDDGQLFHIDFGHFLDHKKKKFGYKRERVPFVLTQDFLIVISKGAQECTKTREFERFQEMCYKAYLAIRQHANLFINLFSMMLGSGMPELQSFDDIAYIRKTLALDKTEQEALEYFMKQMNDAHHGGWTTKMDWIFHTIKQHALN
Assay: In vitro determination of the PI3K enzyme inhibitory activity in the cell free assay (ADP-Glo Kinase Assay), PI3Kα
Details: ATP 50 μM, read-out: PI3K alpha inhibition
pIC50: −log10 of the molar value.
READOUT NAME: pIC50

Look over these answered cases.
CC(c1cc2ccccn2c1-c1csc(CN2CCOCC2)n1)n1nc(-c2cc(O)cc(F)c2)c2c(N)ncnc21 (stereo not drawn) [Example 130]; < 6.00
C[C@H](c1cc2ccccn2c1-c1ccc(CN2CCOCC2)cn1)n1nc(-c2cc(O)cc(F)c2)c2c(N)ncnc21 (single isomer, unassigned) [Example 108a]; < 6.00

Name the recorded pIC50 of the item CC(c1cc2ccccn2c1C#CCN(C)C)n1nc(-c2cc(O)cc(F)c2)c2c(N)ncnc21 (stereo not drawn) [Example 131] in your answer.
6.00 to 8.00

Name the recorded pIC50 of the item Cc1ccccc1-c1c(CNc2ncnc3[nH]cnc23)cn2ccccc12 [Example 19] in your answer.
< 6.00

###

Reported values of pIC50 for individual entries
Target: PI3Kγ (Homo sapiens)
Sequence (P48736 whole entry): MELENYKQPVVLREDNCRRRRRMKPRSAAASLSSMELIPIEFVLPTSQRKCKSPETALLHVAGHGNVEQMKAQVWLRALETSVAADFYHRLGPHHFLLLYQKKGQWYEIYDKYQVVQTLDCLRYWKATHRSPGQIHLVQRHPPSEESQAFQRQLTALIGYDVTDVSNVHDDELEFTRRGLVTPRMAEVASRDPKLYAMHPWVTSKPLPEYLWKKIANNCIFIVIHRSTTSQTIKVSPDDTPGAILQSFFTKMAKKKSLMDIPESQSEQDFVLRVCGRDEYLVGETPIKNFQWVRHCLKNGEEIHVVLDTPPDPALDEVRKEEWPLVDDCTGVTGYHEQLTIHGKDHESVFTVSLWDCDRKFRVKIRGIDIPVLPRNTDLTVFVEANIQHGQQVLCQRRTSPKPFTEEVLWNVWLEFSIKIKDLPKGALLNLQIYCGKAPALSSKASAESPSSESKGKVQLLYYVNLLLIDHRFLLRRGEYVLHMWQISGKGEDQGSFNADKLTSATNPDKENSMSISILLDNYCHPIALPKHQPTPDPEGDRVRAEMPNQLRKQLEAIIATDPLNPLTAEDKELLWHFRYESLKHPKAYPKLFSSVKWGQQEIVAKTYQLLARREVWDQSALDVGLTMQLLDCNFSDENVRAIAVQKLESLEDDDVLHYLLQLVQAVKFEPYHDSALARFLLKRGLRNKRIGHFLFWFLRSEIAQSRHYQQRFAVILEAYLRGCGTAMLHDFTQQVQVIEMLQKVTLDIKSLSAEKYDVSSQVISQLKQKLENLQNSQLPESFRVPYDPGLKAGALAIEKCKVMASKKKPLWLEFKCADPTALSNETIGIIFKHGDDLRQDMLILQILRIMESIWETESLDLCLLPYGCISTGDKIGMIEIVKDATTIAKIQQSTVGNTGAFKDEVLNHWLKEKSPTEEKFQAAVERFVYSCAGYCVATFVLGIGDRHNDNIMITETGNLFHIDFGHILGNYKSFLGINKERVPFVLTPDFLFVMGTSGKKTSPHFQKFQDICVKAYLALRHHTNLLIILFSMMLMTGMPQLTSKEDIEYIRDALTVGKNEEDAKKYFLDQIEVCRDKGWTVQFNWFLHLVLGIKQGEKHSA
Test: In vitro determination of the PI3K enzyme inhibitory activity in the cell free assay (ADP-Glo Kinase Assay), PI3Kγ
Conditions: ATP 30 μM, read-out: PI3K gamma inhibition
pIC50: −log10 of the molar value. Where a name gives a salt, the structure may show the parent alone.

Look over these answered cases.
CC(c1cc2ccccn2c1-c1ccc(CN(C)C)cn1)n1nc(-c2cc(O)cc(F)c2)c2c(N)ncnc21 (stereo not shown); < 6.00
N#Cc1c(N)ncnc1NCc1cc2ccccn2c1-c1ccccn1; < 6.00
CC(Nc1ncnc(N)c1C(=O)O)c1cc2ccccn2c1-c1ccccn1 (stereo not shown) [Example 53, formate]; < 6.00
CC(c1cc2ccccn2c1-c1ccc(CN(CCO)CCO)cn1)n1nc(-c2cc(O)cc(F)c2)c2c(N)ncnc21 (stereo not shown); < 6.00
C[C@@H](c1cc2ccccn2c1-c1ccccn1)n1nc(-c2cc(O)cc(F)c2)c2c(N)ncnc21 (single isomer, unassigned) [Example 80]; 6.00 to 8.00
C[C@@H](c1cc2ccccn2c1-c1ccncc1)n1nc(-c2cc(O)cc(F)c2)c2c(N)ncnc21 (single isomer, unassigned) [Example 83]; 6.00 to 8.00
Fc1cccc(-c2c(CNc3ncnc4[nH]cnc34)cc3ccccn23)c1; < 6.00
Cc1ccc2cc(C(C)n3nc(-c4cc(O)cc(F)c4)c4c(N)ncnc43)c(-c3ccccn3)n2c1 (stereo not shown); < 6.00

Name the recorded pIC50 of the item CC(c1cc2ccccn2c1-c1ccccn1)n1nc(-c2cc(F)cc(-c3nnn[nH]3)c2)c2c(N)ncnc21 (stereo not shown) in your answer.
< 6.00

Name the recorded pIC50 of the item CC(c1cc2ccccn2c1-c1ccccn1)n1nc(-c2ccc(O)c(F)c2)c2c(N)ncnc21 (stereo not shown) in your answer.
6.00 to 8.00

Name the recorded pIC50 of the item CC(Nc1ncnc(N)c1C#N)c1cc2ccccn2c1-c1cccnc1 (stereo not shown) in your answer.
6.00 to 8.00

Name the recorded pIC50 of the item CC(c1cc2ccccn2c1-c1ccccn1)n1nc(-c2ccc(F)c(O)c2)c2c(N)ncnc21 (stereo not shown) in your answer.
6.00 to 8.00

Name the recorded pIC50 of the item "Nc1ncn(Cc2cc3ccccn3c2-c2ccccc2)c2ncnc1-2" in your answer.
< 6.00

Name the recorded pIC50 of the item CC(c1cc2ccccn2c1-c1ccc(OCCN2CCN(C)CC2)nn1)n1nc(-c2cc(O)cc(F)c2)c2c(N)ncnc21 (stereo not shown) in your answer.
< 6.00

Name the recorded pIC50 of the item CC(c1cc2ccccn2c1-c1ccn(CCN(C)C)c(=O)c1)n1nc(-c2cc(O)cc(F)c2)c2c(N)ncnc21 (stereo not shown) [Example 133] in your answer.
6.00 to 8.00

Name the recorded pIC50 of the item C[C@@H](c1cc2ccccn2c1-c1ccncc1)n1nc(-c2cc(O)cc(F)c2)c2c(N)ncnc21 (single isomer, unassigned) [Example 84] in your answer.
< 6.00

###

Target: PI3Kβ (Homo sapiens, UniProt P42338)
Sequence (P42338 whole entry): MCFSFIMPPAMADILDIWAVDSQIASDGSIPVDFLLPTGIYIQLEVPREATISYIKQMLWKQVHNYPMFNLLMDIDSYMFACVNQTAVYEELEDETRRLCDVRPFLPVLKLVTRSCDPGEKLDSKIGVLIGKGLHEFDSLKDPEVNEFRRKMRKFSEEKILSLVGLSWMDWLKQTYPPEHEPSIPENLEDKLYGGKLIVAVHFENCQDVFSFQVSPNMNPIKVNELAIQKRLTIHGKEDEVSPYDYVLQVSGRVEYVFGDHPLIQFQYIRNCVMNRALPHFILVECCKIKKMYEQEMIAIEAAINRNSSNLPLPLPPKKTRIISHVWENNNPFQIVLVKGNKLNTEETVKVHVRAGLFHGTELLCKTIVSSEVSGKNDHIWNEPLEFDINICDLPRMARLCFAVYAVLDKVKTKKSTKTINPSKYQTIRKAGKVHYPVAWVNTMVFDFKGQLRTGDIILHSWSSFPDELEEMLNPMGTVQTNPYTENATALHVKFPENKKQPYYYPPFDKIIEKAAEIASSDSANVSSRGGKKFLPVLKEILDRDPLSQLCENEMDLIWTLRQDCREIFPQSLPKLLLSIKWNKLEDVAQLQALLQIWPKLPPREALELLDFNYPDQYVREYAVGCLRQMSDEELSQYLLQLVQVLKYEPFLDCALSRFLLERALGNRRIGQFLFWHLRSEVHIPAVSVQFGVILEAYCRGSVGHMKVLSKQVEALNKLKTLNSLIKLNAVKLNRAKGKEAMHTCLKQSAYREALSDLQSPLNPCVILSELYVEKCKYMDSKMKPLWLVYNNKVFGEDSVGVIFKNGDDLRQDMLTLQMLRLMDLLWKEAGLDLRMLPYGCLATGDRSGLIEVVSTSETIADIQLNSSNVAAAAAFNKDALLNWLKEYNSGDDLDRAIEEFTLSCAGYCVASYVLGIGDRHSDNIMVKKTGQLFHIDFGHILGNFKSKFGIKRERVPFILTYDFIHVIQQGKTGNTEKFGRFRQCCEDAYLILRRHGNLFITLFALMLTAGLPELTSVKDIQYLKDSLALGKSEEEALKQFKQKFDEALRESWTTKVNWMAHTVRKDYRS
Sequence (P27986 whole entry partner): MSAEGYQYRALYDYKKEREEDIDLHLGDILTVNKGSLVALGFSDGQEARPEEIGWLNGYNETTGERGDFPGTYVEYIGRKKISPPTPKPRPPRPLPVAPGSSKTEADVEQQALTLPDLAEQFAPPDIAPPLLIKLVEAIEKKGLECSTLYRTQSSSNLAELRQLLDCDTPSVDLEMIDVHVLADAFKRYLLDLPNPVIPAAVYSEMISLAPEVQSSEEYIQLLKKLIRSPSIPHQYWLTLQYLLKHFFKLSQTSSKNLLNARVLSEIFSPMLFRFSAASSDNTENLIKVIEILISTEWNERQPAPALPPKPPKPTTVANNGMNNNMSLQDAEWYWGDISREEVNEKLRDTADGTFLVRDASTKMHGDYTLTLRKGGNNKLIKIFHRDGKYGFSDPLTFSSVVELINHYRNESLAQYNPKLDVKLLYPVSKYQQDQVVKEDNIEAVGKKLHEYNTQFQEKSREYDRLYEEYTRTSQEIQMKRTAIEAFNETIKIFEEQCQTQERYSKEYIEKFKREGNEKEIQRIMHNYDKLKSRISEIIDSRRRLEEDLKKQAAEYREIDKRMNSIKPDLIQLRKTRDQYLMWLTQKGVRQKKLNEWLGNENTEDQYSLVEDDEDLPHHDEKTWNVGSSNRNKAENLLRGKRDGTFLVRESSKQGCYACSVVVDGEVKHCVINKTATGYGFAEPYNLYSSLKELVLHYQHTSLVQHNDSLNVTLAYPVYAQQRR
Experiment: In vitro determination of the PI3K enzyme inhibitory activity in the cell free assay (ADP-Glo Kinase Assay), PI3Kβ
Conditions: ATP 100 μM, read-out: PI3K beta inhibition
Experimental: In vitro Determination of the PI3K Enzyme Inhibitory Activity in the Cell Free Assay Human recombinant proteins PI3Kα, PI3Kβ, PI3Kγ and PI3Kδ were purchased from Millipore Ltd (Billerica, Mass.). Compounds were dissolved at 0.5 mM in DMSO and were tested at different concentrations for their activity against PI3Ks using the ADP-Glo™ Kinase Assay (Promega, Madison Wis.) according to the manufacturer's instructions. […]
Reported values of IC50 for individual entries

Name the recorded IC50 of the item CC(c1cc2ccccn2c1-c1ccn(CCN(C)C)c(=O)c1)n1nc(-c2cc(O)cc(F)c2)c2c(N)ncnc21 (single isomer, unassigned) [Example 133a] in your answer.
> 1000 nM

Name the recorded IC50 of the item CC(c1cc2ccccn2c1-c1ccc(=O)n(CCN2CCOCC2)c1)n1nc(-c2cc(O)cc(F)c2)c2c(N)ncnc21 (stereo not drawn) in your answer.
> 1000 nM

Name the recorded IC50 of the item "Cc1ccccc1-c1c(CNc2ncnc3[nH]cnc23)cn2ccccc12" in your answer.
> 1000 nM

###

Target: PI3Kδ (Homo sapiens, UniProt O00329)
Sequence (O00329 whole entry, one chain of several): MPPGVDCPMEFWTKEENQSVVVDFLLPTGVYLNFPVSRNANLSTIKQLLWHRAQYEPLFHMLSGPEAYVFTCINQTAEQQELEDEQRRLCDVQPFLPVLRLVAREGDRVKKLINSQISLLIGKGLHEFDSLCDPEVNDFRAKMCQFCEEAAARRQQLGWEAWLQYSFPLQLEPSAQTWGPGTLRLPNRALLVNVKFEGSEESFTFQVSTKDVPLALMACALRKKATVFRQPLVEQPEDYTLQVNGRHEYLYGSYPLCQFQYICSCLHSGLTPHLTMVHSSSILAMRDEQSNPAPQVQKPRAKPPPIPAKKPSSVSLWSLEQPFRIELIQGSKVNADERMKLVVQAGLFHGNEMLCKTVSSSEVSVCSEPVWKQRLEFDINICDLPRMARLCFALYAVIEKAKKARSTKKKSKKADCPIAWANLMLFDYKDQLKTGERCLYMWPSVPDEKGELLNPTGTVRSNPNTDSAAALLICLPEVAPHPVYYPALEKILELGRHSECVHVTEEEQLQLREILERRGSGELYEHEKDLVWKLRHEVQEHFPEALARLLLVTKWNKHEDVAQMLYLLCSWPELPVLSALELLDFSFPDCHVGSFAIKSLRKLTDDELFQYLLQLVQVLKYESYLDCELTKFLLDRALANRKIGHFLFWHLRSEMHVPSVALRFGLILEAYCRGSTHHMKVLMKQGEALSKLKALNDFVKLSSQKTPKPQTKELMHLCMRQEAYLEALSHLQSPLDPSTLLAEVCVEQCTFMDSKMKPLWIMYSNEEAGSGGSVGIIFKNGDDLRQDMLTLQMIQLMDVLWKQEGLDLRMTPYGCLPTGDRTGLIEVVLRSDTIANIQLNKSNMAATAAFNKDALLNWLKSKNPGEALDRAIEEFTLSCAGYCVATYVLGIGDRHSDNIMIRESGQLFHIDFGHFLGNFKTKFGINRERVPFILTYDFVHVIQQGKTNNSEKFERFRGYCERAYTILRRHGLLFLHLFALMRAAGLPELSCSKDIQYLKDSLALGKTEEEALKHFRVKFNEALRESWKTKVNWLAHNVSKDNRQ
Test: In vitro determination of the PI3K enzyme inhibitory activity in the cell free assay (ADP-Glo Kinase Assay), PI3Kδ
Conditions: ATP 80 μM, read-out: PI3K delta inhibition
Reported values of IC50 for individual entries

Look over these answered cases.
C[C@@H](c1cc2ccccn2c1-c1ccncc1)n1nc(-c2cc(O)cc(F)c2)c2c(N)ncnc21 (single isomer, unassigned) [Example 84]; 10 to 1000 nM
C[C@@H](c1cc2ccccn2c1-c1ccccn1)n1nc(-c2cc(O)cc(F)c2)c2c(N)ncnc21 (single isomer, unassigned) [Example 80]; < 10 nM
CC(c1cc2ccccn2c1-c1ccn(CCN2CCOCC2)c(=O)c1)n1nc(-c2cc(O)cc(F)c2)c2c(N)ncnc21 (centres unmarked); < 10 nM
N#Cc1c(N)ncnc1NCc1cn2ccccc2c1-c1cccc(F)c1; 10 to 1000 nM
Cc1ccccc1-c1c(CNc2ncnc(N)c2C#N)cn2ccccc12; 10 to 1000 nM
Cc1ccccc1-c1c(Cn2cnc3c(N)ncnc32)cn2ccccc12; > 1000 nM

Name the recorded IC50 of the item "N#Cc1c(N)ncnc1NCc1cc2ccccn2c1" in your answer.
10 to 1000 nM

Name the recorded IC50 of the item CC(c1cc2ccccn2c1-c1ccn(CCN(C)C)n1)n1nc(-c2cc(O)cc(F)c2)c2c(N)ncnc21 (centres unmarked) in your answer.
< 10 nM

Name the recorded IC50 of the item C[C@H](c1cc2ccccn2c1-c1cccc(CN(C)C)c1)n1nc(-c2cc(O)cc(F)c2)c2c(N)ncnc21 (single isomer, unassigned) [Example 93b] in your answer.
10 to 1000 nM

Name the recorded IC50 of the item "Nc1nccnc1C(=O)NCc1cn2ccccc2c1-c1ccccn1" in your answer.
> 1000 nM

Name the recorded IC50 of the item "Fc1cccc(-c2c(CNc3ncnc4[nH]cnc34)cc3ccccn23)c1" in your answer.
> 1000 nM

###

Target: PI3Kα (Homo sapiens)
Construct: purchased Millipore Ltd (Billerica, Mass.)
Assay: In vitro determination of the PI3K enzyme inhibitory activity in the cell free assay (ADP-Glo Kinase Assay), PI3Kα
Assay type: biochemical
Conditions: ATP 50 μM, read-out: PI3K alpha inhibition
pIC50: −log10 of the molar value.
Reported values of pIC50 for individual entries

Look over these answered cases.
Nc1ncnc2c1ncn2Cc1cc2ccccn2c1; < 6.00
CC(c1cc2ccccn2c1-c1ccc(CN(CCO)CCO)cn1)n1nc(-c2cc(O)cc(F)c2)c2c(N)ncnc21 (stereo not shown); < 6.00

Name the recorded pIC50 of the item C[C@H](c1cc2ccccn2c1-c1ccc(CN2CCN(C)CC2)cn1)n1nc(-c2cc(O)cc(F)c2)c2c(N)ncnc21 (single isomer, unassigned) [Example 114a] in your answer.
6.00 to 8.00

Name the recorded pIC50 of the item "Nc1ncnc2c1c(-c1cc(O)cc(F)c1)nn2Cc1cc2ccccn2c1-c1cccnc1" in your answer.
6.00 to 8.00

Name the recorded pIC50 of the item "Nc1ncnc2c1c(-c1cc(O)cc(F)c1)nn2Cc1cc2cccnn2c1-c1ccccn1" in your answer.
< 6.00

Name the recorded pIC50 of the item "c1ccc(-c2c(CNc3ncnc4[nH]cnc34)cn3ccccc23)nc1" in your answer.
< 6.00

Name the recorded pIC50 of the item "c1ccc(-c2c(CNc3ncnc4[nH]cnc34)cc3ccccn23)cc1" in your answer.
< 6.00

###

Target: UniProtKB P42338
Assay: In vitro determination of the PI3K enzyme inhibitory activity in the cell free assay (ADP-Glo Kinase Assay), PI3Kβ
Settings: ATP 100 μM, read-out: PI3K beta inhibition
pIC50: −log10 of the molar value.
READOUT NAME: pIC50

Look over these answered cases.
CC(c1cc2ccccn2c1-c1ccccn1)n1nc(-c2cncc(O)c2)c2c(N)ncnc21 (stereo not shown) [Example 69]; 6.00 to 8.00
Fc1ccccc1-c1c(CNc2ncnc3[nH]cnc23)cc2ccccn12 [Example 16]; < 6.00
CC(c1cc2ccccn2c1-c1ccccc1)n1nc(-c2cc(O)cc(F)c2)c2c(N)ncnc21 (stereo not shown) [Example 85]; 6.00 to 8.00
CC(c1cc2ccccn2c1N1CCCC1=O)n1nc(-c2cc(O)cc(F)c2)c2c(N)ncnc21 (stereo not shown) [Example 95]; 6.00 to 8.00
CC(Nc1ncnc(N)c1C#N)c1cc2ccccn2c1-c1ccccc1 (stereo not shown) [Example 32]; < 6.00

Name the recorded pIC50 of the item CC(Nc1ncnc(N)c1C#N)c1cc2ccccn2c1-c1ccccn1 (stereo not shown) [Example 33] in your answer.
6.00 to 8.00

Name the recorded pIC50 of the item CC(Nc1ncnc(N)c1C#N)c1cc2ccccn2c1-c1ccsc1 (stereo not shown) [Example 38] in your answer.
< 6.00
